The compounds below each have a reported Kd tested on Retinoic acid receptor gamma (Homo sapiens, UniProt P13631); the values come from various publications.
Recorded Metric: Kd

In [3]: df
Out[3]:
                                   compound  assay_result
0  CC12CCC(C1)C1(C)Oc3ccc(C(=O)COc4ccc(C(=O)O)cc4)cc3C21C (centres unmarked)      0.481 µM
1  Cc1ccc(C2=CC(C)(C)Oc3cc4ccc(-c5ccc(C(=O)O)cc5)cc4cc32)s1      0.033 µM
2  C=C(c1ccc(C)cc1)c1cccc(C#Cc2ccc(C(=O)O)cc2)c1        > 1 µM
3  O=C(O)Cc1ccc(C#Cc2ccc(C3(OCc4ccccc4)CC3)cc2)cc1       > 10 µM
4  Cc1ccc(C2=CCC(C)(C)C=C2/C=C/C#Cc2ccc(C(=O)O)cc2)cc1      0.033 µM
5  C#Cc1cc(C#Cc2ccc(CC(=O)O)cc2)cc2c1OC(C)(C)CC2(C)C       > 10 µM
6  CC(/C=C/CC1(c2cc(C(C)(C)C)cc3c2CCC3(C)C)CC1)=C\C(=O)O        > 5 µM
7  C#CCc1cc(C#Cc2ccc(CC(=O)O)cc2)cc2c1OC(C)(C)CC2(C)C       8.24 µM

---

The molecules below each have a reported Kd tested on Retinoic acid receptor gamma (Homo sapiens, UniProt P13631); the values come from various publications.
Mark true only when Kd stays strictly below 400 nM. Values equal to the cut-off are false.

In [3]: df
Out[3]:
                         chemical_structure                        measurement_target  label_class
0  CC(C)(C)c1ccc(C#Cc2ccc(C(=O)O)c(F)c2)cc1Oc1ccc([N+](=O)[O-])cc1  Retinoic acid receptor gamma (Homo sapiens, UniProt P13631)         true
1  C=C(c1ccc(C)cc1)c1cc(C#Cc2ccc(C(=O)O)cc2)ccc1O  Retinoic acid receptor gamma (Homo sapiens, UniProt P13631)        false
2  Cc1cc2c(cc1Sc1ccc(C(=O)O)cn1)C(C)(C)CCC2(C)C  Retinoic acid receptor gamma (Homo sapiens, UniProt P13631)        false
3  CC1(C)CC=C(Sc2ccccc2)c2cc(/C=C/c3ccc(C(=O)O)cc3)ccc21  Retinoic acid receptor gamma (Homo sapiens, UniProt P13631)         true
4  CCOc1c(\C(C)=C(F)/C=C/C(C)=C/C(=O)O)cc2c(c1Br)C(C)(C)CC=C2C(C)(C)C  Retinoic acid receptor gamma (Homo sapiens, UniProt P13631)        false
5  CC(/C=C/CC1(c2cc3c(cc2C)C(C)(C)CCC3(C)C)CC1)=C\C(=O)O  Retinoic acid receptor gamma (Homo sapiens, UniProt P13631)        false
6  CC1(C)CCSc2ccc(C#Cc3ccc(CCC(=O)O)cc3)cc21  Retinoic acid receptor gamma (Homo sapiens, UniProt P13631)        false

---

The compounds below each have a reported pKd tested on Retinoic acid receptor gamma (Homo sapiens); the values come from various publications.
pKd: −log10 of the molar value.
Recorded Metric: pKd

In [3]: df
Out[3]:
                                   compound  recorded_metric  modifier_sign  assay_result
0   COC1(c2ccc(C#Cc3ccc(CC(=O)O)cc3)cc2)CC1              pKd              <          5.00
1  COCOc1ccc(C#Cc2ccc(C(=O)O)cc2)cc1C(=O)c1ccc(C)cc1              pKd              =          6.04
2  CC(/C=C/[C@@H]1C[C@]1(C)c1ccc2c(c1)C(C)(C)CCN2C(=O)OC(C)(C)C)=C\C(=O)O              pKd              =          4.92
3  CCOc1c(\C(CC)=C(F)/C=C/C(C)=C/C(=O)O)cc2c(c1Br)C(C)(C)CC=C2C(C)CC (stereo not shown)              pKd              =          6.29

---

pKd: −log10 of the molar value.
The molecules below each have a reported pKd tested on Retinoic acid receptor gamma (Homo sapiens, UniProt P13631); the values come from various publications.
Recorded Metric: pKd

>>> df
                          chemical_structure  recorded_metric  modifier_sign  assay_result
 0  CC1(C)CCCC(c2ccc(C(C)(C)C)cc2)=C1/C=C/C#Cc1ccc(C(=O)O)cc1              pKd              =          6.48
 1  Cc1ccc(C(=O)c2cc(C#Cc3ccc(C(=O)O)cc3)ccc2O)cc1              pKd              =          6.05
 2  CC(C)(C)c1ccc(C#Cc2ccc(C(=O)O)cn2)cc1Oc1ccc(C(F)(F)F)cc1              pKd              =          6.50
 3  CCOc1c(\C(CC)=C(F)/C=C/C(C)=C/C(=O)O)cc2c(c1Cl)C(C)(C)CC=C2C(C)C              pKd              =          6.35
 4  CCc1cc(C#Cc2ccc(CC(=O)O)cc2)ccc1C1(OCc2ccccc2)CC1              pKd              <          5.00
 5  O=C(O)c1ccc(C#Cc2ccc(C3(N(Cc4ccccc4)Cc4ccccc4)CC3)cc2)cc1              pKd              <          5.00
 6  CC1(C)CCC(C)(C)c2c1cc(C(=O)Nc1cc(F)c(C(=O)O)c(F)c1)c(O)c2Cl              pKd              <          5.00
 7  Cc1ccc(N2CCC(C)(C)c3ccc(C(=O)Nc4ccc(C(=O)O)cc4)cc32)cc1              pKd              <          6.00
 8  CC(C)(C)C1=CCC(C)(C)c2ccc(C(=O)Nc3ccc(C(=O)O)cc3)cc21              pKd              =          6.05
 9  Cc1ccc(Oc2cc(/C=C/c3ccc(C(=O)O)cc3)ccc2C(C)(C)C)cc1              pKd              =          7.48
10  Cc1ccc(Oc2cc(C#Cc3ccc(C(=O)O)cc3)ccc2C(C)(C)C)cc1              pKd              =          7.39
11  C=C(c1ccccc1)c1cc(/C(C)=C/C=C/C(C)=C/C(=O)O)cc(C(C)(C)C)c1              pKd              =          7.85

---

The molecules below each have a reported Kd tested on UniProtKB P13631; the values come from various publications.
Recorded Metric: Kd

>>> print(df.to_string())
                         chemical_structure  recorded_metric  assay_result
0  CC(C)(C)c1ccc(/C=C/c2ccc(C(=O)O)cc2)cc1Oc1ccc(C(F)(F)F)cc1               Kd        162 nM
1  CC(/C=C/C(F)=C(/C)c1cc2c(c(Br)c1OC(C)C)C(C)(C)CC=C2C(C)(C)C)=C\C(=O)O               Kd        866 nM
2  CC1(C)CCC2(SCCCS2)c2cc(/C=C/c3ccc(C(=O)O)cc3)ccc21               Kd        259 nM
3  CC(C)(O)/C=C\C1=CCC(C)(C)c2ccc(/C=C/c3ccc(C(=O)O)cc3)cc21               Kd       1.57 nM

---

The compounds below each have a reported Kd tested on Retinoic acid receptor gamma (Homo sapiens, UniProt P13631); the values come from various publications.
Recorded Metric: Kd

>>> print(df.to_string())
                         chemical_structure                        measurement_target  assay_result
0  Cc1cc(C#Cc2ccc(CC(=O)O)cc2)ccc1C1(OCc2ccccc2)CC1  Retinoic acid receptor gamma (Homo sapiens, UniProt P13631)    > 10000 nM
1  CC(C)(C)c1cc(C(=O)Nc2cc(F)c(C(=O)O)c(F)c2)cc(C(C)(C)C)c1  Retinoic acid receptor gamma (Homo sapiens, UniProt P13631)     > 1000 nM
2   CC1(C)CCSc2ccc(C#Cc3ccc(C(=O)O)cn3)cc21  Retinoic acid receptor gamma (Homo sapiens, UniProt P13631)        353 nM
3  CC(C)(C)c1cc(C(=O)Nc2ccc(C(=O)O)cc2)cc(C(C)(C)C)n1  Retinoic acid receptor gamma (Homo sapiens, UniProt P13631)     > 1000 nM
